# Y2 cAMP EC50 listing for each entry below
Target: T1, Y2 receptor (UniProt P49146 1-381, limits assumed)
T1 sequence (looked up): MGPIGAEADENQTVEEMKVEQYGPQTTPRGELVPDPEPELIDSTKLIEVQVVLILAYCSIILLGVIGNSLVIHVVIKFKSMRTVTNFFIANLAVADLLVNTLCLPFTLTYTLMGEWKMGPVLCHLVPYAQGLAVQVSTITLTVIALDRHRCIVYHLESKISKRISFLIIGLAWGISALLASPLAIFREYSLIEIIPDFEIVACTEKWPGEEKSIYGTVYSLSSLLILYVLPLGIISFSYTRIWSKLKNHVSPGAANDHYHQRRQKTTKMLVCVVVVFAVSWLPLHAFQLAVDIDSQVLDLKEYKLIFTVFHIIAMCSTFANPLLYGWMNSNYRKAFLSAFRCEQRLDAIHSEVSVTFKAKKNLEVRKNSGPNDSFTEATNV
Experiment: cell-based or functional assay
*1 amine or outer side, *2 acyl side, *3 side chain or, on linkers, in order; H or OH if unused. Where no end group is shown, it is not given here. Side-chain parts run from the residue outwards. The star is where a group is joined. C20 diacid = O=C(O)CCCCCCCCCCCCCCCCCCC(=O)*; γGlu = O=C(O)[C@H](CCC(=O)[*:2])N[*:1]; Trx = NC[C@H]1CC[C@H](C(=O)O)CC1; AEEA = NCCOCCOCC(=O)O
Field: numeric (nM). Do not append units.

[
  {
    "binder": "APLEPVYPGDNAK([AEEA-AEEA-γGlu-Trx-C20 diacid])PEQLAQYAADLRRYINVLTRQRY (ends and bridges not checked)",
    "Y2 cAMP EC50 (nM)": 130
  }
]

# context switch: different binder, same Y2 cAMP EC50
input: State its Y2 cAMP EC50 for this binder: APLEPVYPGDNAK([AEEA-AEEA-γGlu-Trx-C20 diacid])PEQLAQYAADLRRYVNLLTRQRY (ends and bridges not checked)
output: 63
